System: MCH58 fibroblasts
Measurement Notes: Glucose versus galactose cell growth screen (metabolic state-dependent lethality)
Condition Summary: approximately 10 μM compound, 72 hours; log10 fold change of normalized cell number in glucose versus galactose
Where a name gives a salt, the structure may show the parent alone.
For each record, write down the corresponding Sglu/gal (log10 fold change) Score.
Answers are plain numbers.

Solved entries (count: 10):
COc1cc2c(cc1OC)[C@@H]1C(=O)c3ccc(OC)c(CC=C(C)C)c3O[C@@H]1CO2 [Rotenonic acid, methyl ether]: 0.34
COc1cc([C@@H]2c3cc4c(cc3[C@H](O)[C@H]3COC(=O)[C@H]23)OCO4)cc(OC)c1OC [Podophyllotoxin]: −0.27
C#C[C@]1(OC(C)=O)CC[C@H]2[C@@H]3CCC4=C[C@@H](OC(C)=O)CC[C@@H]4[C@H]3CC[C@@]21C [Ethynodiol diacetate]: 0.15
CC1=C(O)C(=O)C=C2C1=CC=C1[C@@]2(C)CC[C@@]2(C)[C@@H]3C[C@](C)(C(=O)O)CC[C@]3(C)CC[C@]12C [celastrol]: −0.29
COC(=O)[C@]1(C)CC[C@]2(C)CC[C@]3(C)C4=CC=C5C(=CC(=O)C(O)=C5C)[C@]4(C)CC[C@@]3(C)[C@@H]2C1 [pristimerin]: −0.37
C[C@]12CC[C@H](O)C[C@H]1CC[C@@H]1[C@@H]2[C@H](O)C[C@]2(C)[C@@H](C3=CC(=O)OC3)CC[C@]12O [sarmentogenin]: −0.21
C[C@H]1CC[C@]2(NC1)O[C@H]1C[C@H]3[C@@H]4CC[C@H]5C[C@@H](O[C@@H]6O[C@H](CO)[C@H](O[C@@H]7O[C@H](CO)[C@@H](O)[C@H](O[C@@H]8OC[C@@H](O)[C@H](O)[C@H]8O)[C@H]7O[C@@H]7O[C@H](CO)[C@@H](O)[C@H](O)[C@H]7O)[C@H](O)[C@H]6O)CC[C@]5(C)[C@H]4CC[C@]3(C)[C@H]1[C@@H]2C [tomatine]: −0.64
C=C1C(=O)O[C@@H]2C[C@@]3(C)CCC[C@H](C)C3=C[C@H]12 [helenine]: −0.22
CCCCc1ccc2[nH]c(NC(=O)OC)nc2c1 [Parbendazole]: −0.24
CC(C)N(C(=O)CCl)c1ccccc1 [propachlor]: −0.26

For each of the compounds below, state Sglu/gal (log10 fold change) Score.
1. CN(C)CCC=C1c2ccccc2C=Cc2ccccc21 [Cyclobenzaprine hydrochloride]
2. CCCCCCc1ccc(O)cc1O.Nc1c2ccccc2nc2ccccc12 [acrisorcin]
3. O=c1[nH]c(=O)n([C@H]2C[C@H](O)[C@@H](CO)O2)cc1C(F)(F)F [Trifluridine]
4. O=C(Nc1ccc([N+](=O)[O-])cc1Cl)c1cc(Cl)ccc1O [Niclosamide]

0.13
−0.36
−0.26
0.15
